All figures here come from patent US7049337B2.

# experimental-target: human D3 receptor (Homo sapiens, UniProt P35462)
# Construct: expressed in transfected cells; host or cells: HEK 293 cells, stably transfected (Watts and colleagues, Oregon Health Sciences University); membranes prepared from the cells
# Sequence (P35462 whole entry): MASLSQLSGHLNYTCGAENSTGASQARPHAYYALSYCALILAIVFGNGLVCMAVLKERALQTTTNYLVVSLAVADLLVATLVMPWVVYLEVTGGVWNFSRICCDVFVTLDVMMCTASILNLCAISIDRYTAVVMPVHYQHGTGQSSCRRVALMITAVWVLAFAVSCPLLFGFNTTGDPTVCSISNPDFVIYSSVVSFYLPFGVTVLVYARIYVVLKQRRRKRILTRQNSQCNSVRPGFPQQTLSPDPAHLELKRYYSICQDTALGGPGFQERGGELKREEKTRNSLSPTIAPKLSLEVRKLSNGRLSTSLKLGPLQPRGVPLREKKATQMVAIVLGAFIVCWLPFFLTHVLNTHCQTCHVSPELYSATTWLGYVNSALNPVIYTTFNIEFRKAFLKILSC
# procedure-summary: [3H]spiperone binding to cloned human D3 receptors in HEK 293 cell membranes
# measurement-setup: ratio of Ki D2L to Ki D3
measure-name: D2L/D3L

[
  {
    "molecule": "C#CCN(CCc1ccc(F)cc1)C1CCc2ccc(O)cc2C1 (racemic)",
    "experimental-target": "human D3 receptor (Homo sapiens, UniProt P35462)",
    "result-number": 111
  },
  {
    "molecule": "C#CCN(CCc1cccs1)C1CCc2ccc(O)cc2C1 (racemic)",
    "experimental-target": "human D3 receptor (Homo sapiens, UniProt P35462)",
    "result-number": 211
  },
  {
    "molecule": "C#CCN(CCCC)C1CCc2ccc(O)cc2C1 (racemic)",
    "experimental-target": "human D3 receptor (Homo sapiens, UniProt P35462)",
    "result-number": 108
  },
  {
    "molecule": "C#CCN(CCCC#N)C1CCc2ccc(O)cc2C1 (racemic)",
    "experimental-target": "human D3 receptor (Homo sapiens, UniProt P35462)",
    "result-number": 353
  },
  {
    "molecule": "C#CCN(CC)C1CCc2ccc(O)cc2C1 (racemic)",
    "experimental-target": "human D3 receptor (Homo sapiens, UniProt P35462)",
    "result-number": 108
  }
]

---

# experimental-target: human D3 receptor (Homo sapiens)
# Construct: expressed in transfected cells; host or cells: HEK 293 cells, stably transfected (Watts and colleagues, Oregon Health Sciences University); membranes prepared from the cells
# procedure-summary: [3H]spiperone binding to cloned human D3 receptors in HEK 293 cell membranes

[
  {
    "compound": "C#CCN(CCc1ccc(F)cc1)C1CCc2ccc(O)cc2C1 (racemic) [Example 6]",
    "Ki": "14.5 nM"
  },
  {
    "compound": "C#CCN(CC)C1CCc2ccc(O)cc2C1 (racemic) [Example 5]",
    "Ki": "13.8 nM"
  },
  {
    "compound": "C#CCN(CCCC)C1CCc2ccc(O)cc2C1 (racemic) [Example 4]",
    "Ki": "4.9 nM"
  }
]

---

# experimental-target: human D2L receptor (Homo sapiens)
# Construct: expressed in transfected cells; host or cells: HEK 293 cells, stably transfected (Watts and colleagues, Oregon Health Sciences University); membranes prepared from the cells
# Sequence (P14416 whole entry): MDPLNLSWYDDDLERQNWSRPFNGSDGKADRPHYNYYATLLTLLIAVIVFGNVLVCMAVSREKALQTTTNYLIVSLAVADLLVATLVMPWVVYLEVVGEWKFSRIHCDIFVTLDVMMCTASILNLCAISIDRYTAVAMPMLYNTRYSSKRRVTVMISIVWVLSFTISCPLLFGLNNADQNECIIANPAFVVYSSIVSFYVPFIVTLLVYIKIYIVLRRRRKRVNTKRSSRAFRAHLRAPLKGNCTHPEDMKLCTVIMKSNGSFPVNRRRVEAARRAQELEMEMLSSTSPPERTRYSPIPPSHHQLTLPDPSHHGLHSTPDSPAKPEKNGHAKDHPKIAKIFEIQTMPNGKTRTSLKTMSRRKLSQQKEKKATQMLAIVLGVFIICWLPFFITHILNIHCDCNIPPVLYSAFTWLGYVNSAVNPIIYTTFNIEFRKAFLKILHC
# procedure-summary: [3H]spiperone binding to cloned human D2L receptors in HEK 293 cell membranes
# measurement-setup: cloned human D2L in HEK cells; 0.4 nM [3H]spiperone, 1 h, 30° C., no GTP; mean ± spread (n)
Entries and their measured Ki follow.

[
  {
    "compound": "C#CCN(CCc1ccc(F)cc1)C1CCc2ccc(O)cc2C1 (racemic)",
    "Ki": "1610 nM"
  },
  {
    "compound": "C#CCN(CCCC)C1CCc2ccc(O)cc2C1 (racemic)",
    "Ki": "534 nM"
  },
  {
    "compound": "C#CCN(CCCC#N)C1CCc2ccc(O)cc2C1 (racemic)",
    "Ki": "8310 nM"
  },
  {
    "compound": "C#CCN(CC)C1CCc2ccc(O)cc2C1 (racemic)",
    "Ki": "1490 nM"
  }
]
